Hello, the source for this data is patent US20160250177A1, in case you need it.

Protocol details: clinical
Cond: human, in vivo, iv, 160 mg/m2
Observable: Cmax (ng/mL)
Answer in ng/mL, number only, no unit symbol.

CC(=O)O[C@@]12CO[C@@H]1C[C@H](O)[C@@]1(C)C(=O)[C@H](O)C3=C(C)[C@@H](OC(=O)[C@H](O)[C@@H](NC(=O)OC(C)(C)C)c4ccccc4)C[C@@](O)([C@@H](OC(=O)c4ccccc4)[C@H]21)C3(C)C: 879

Pending compound:
The reported value for "CC(=O)O[C@@]12CO[C@@H]1C[C@H](O)[C@@]1(C)C(=O)[C@H](O)C3=C(C)[C@@H](OC(=O)[C@H](OC(=O)CN4CCN(C)CC4)[C@@H](NC(=O)OC(C)(C)C)c4ccccc4)C[C@@](O)([C@@H](OC(=O)c4ccccc4)[C@H]21)C3(C)C" in terms of Cmax is 98400
